Listing of entries alongside the reported PBM E-score of 8-mer.
# Tested on: SpTbr T-box DNA-binding domain (GST fusion);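 also: protein at 200 nM in PBS on universal double-stranded arrays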
# Sequence: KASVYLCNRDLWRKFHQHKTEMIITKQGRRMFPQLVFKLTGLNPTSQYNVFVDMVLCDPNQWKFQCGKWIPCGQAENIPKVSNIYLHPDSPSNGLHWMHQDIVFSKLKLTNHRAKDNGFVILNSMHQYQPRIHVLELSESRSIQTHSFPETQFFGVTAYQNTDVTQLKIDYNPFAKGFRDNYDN
# protocol.description: PBM E-score of 8-mer (E-score (dimensionless, -0.5 to 0.5)); Tbr is Tbrain of the sea star Patiria miniata (Pm) or the sea urchin Strongylocentrotus purpuratus (Sp); higher = stronger binding preference
# test.settings: the construct has about 5 more residues each side
Over roughly 33,000 sequences, “E-score (dimensionless, -0.5 to 0.5)” has its median near -0.046; the highest 2% begin near 0.36. The list comes from a sample in which the highest values are over-represented; it also holds close analogues and randomly drawn sequences.
Just the number, please, no unit attached.

* AGAGTGTG | 0.375
* GGGCGAAC | -0.0364
* CGTGGGAC | 0.0261
* ACTCGACA | 0.24

Task: Supply recorded PBM E-score of 8-mer for `CGCACTTA` here.
Result: 0.329

Task: Supply recorded PBM E-score of 8-mer for `GGCTGTCA` here.
Result: 0.172

Task: Supply recorded PBM E-score of 8-mer for `GATTTTCC` here.
Result: -0.00302

Task: Supply recorded PBM E-score of 8-mer for `CTGCGAAG` here.
Result: 0.248

Task: Supply recorded PBM E-score of 8-mer for `AGCTGTCA` here.
Result: 0.382
